For each record, write down the corresponding pIC50.
system: U-251; assay: Cytotoxicity against human U251 cells incubated for 24 hrs by MTT assay; assay type: functional, cell-based; conditions: U-251, 24 h
Give bare numbers, as −log10 of the molar value.

Compound structure	pIC50
C=C(CC[C@@H](C)[C@H]1CC[C@H]2C3=CC[C@H]4[C@H](C)[C@@H](O)CC[C@]4(C)C3=C[C@@H](O)[C@]12C)C(C)C	4.81

Name the recorded pIC50 for `C/C=C(\CO)CC[C@@H](C)[C@H]1CC[C@H]2C3=C(C(=O)C[C@]12C)[C@@]1(C)CC[C@@H](O)[C@](C)(O)[C@@H]1C[C@@H]3O` . 5.04
